Source listed as paper PMC7496240.

Target: UniProtKB Q6HA09
Sequence (Q6HA09 86-435 limits assumed): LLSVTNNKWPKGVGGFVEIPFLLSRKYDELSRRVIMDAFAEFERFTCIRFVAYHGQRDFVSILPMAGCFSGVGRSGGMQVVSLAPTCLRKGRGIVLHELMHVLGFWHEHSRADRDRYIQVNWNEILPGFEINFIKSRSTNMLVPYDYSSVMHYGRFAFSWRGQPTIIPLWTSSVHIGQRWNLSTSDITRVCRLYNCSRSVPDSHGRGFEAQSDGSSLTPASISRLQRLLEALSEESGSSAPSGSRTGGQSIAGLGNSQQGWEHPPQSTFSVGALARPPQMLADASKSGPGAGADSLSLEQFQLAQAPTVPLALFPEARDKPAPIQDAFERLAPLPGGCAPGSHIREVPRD
log10 Ki values, listed per item
parameterMeasured: log10 Ki (log10 of the value in µM)

>>> assayresult("O=C(CCN(Cc1ccc(Cl)cc1F)Cc1ccc(Cl)c(O)c1F)NO")
-0.12
>>> assayresult("O=C(CCN(Cc1cccnc1)Cc1ccc2c(c1)OCO2)NO")
0.91
>>> assayresult("O=C(CCN(Cc1ccncc1)Cc1ccc(Cl)c(O)c1F)NO")
0.91
>>> assayresult("O=C(CCN(Cc1ccc2c(c1)OCO2)Cc1ccc(Cl)cc1F)NO")
0.29
>>> assayresult("O=C(CCN(Cc1ccncc1)Cc1ccc2c(c1)OCO2)NO")
0.88
>>> assayresult("O=C(CCN(Cc1ccc2c(c1)OCO2)Cc1ccc(Cl)c(O)c1F)NO")
-0.17
